Cited source for all entries: patent US20090048164A1

Consider the following binders; for each one, report its Fold/wt.
# Assayed system: Recombinant human Bcl-xL with a 25 amino acid truncation of its C-terminus (human) (UniProt Q07817)
# Sequence (Q07817 1-208): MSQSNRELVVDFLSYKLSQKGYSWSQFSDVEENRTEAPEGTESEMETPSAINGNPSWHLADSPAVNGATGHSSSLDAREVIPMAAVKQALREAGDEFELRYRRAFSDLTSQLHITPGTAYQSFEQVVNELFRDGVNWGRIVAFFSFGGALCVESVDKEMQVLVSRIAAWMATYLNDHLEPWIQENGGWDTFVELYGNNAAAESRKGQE
# Assay info: competition phage ELISA
Give bare numbers, in fold.

The examples below pair each entry with its known result.
| Binder | Fold/wt / fold |
| --- | --- |
| NLWAAARYGRELRRMSDEFVDSFKKG [Bad BH3 Q6A, phage-displayed] | 2 |
| PSSTMGQVGRQLAIIGDDINRAYDSE [Bak BH3 R22A, phage-displayed] | 1 |
| NLWAAQAYGRELRRMSDEFVDSFKKG [Bad BH3 R7A, phage-displayed] | 2 |

# per-item lookup of Fold/wt; items listed below
1. PSSTMGAVGRQLAIIGDDINRRYDSE [Bak BH3 Q7A, phage-displayed]
2. NLWAAQRYGRELRRMSDEFVDSFKKE [Bad BH3 G26E, phage-displayed]
3. NLWAAQRYGRELRRMSDEFVDSFAKG [Bad BH3 K24A, phage-displayed]
4. NLWAAQRAGRELRRMSDEFVDSFKKG [Bad BH3 Y8A, phage-displayed]
5. QEAIIRNIARHLAQVGDSMDRSIPPG [Bid BH3 D3A, phage-displayed]
6. NLWAEQRYGRELRRMSDEFVDSFKKG [Bad BH3 A5E, phage-displayed]
7. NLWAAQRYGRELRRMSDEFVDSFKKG [Bad BH3 wild type, phage-displayed]
8. NLWAAQRYGRELRRASDEFVDSFKKG [Bad BH3 M15A, phage-displayed]

Solution:
1
1
2
3
1
5
1
3
